- System: SARS-CoV-2
- testMethodNotes: Antiviral assay (viral RNA in culture supernatant by RT-qPCR)
- protocolConditions: Severe acute respiratory syndrome coronavirus 2, 72 h, read-out: CC50 (Antiviral Data), MOI of 0.05, 72 h, 96-well plate, RT-qPCR of viral RNA
quantityMeasured: CC50

Inquiry: Read off the recorded CC50 for CCCN(CCC)[C@@H]1C[C@@H](C(=O)NC(C#N)C[C@@H]2CCNC2=O)N(C(=O)[C@@H](NC(=O)C(F)(F)F)C(C)(C)C)C1 (stereo partly shown)
Reply text: > 100 µM

Inquiry: Find the measured CC50 of CC(C)(C)[C@H](NC(=O)OCc1ccccc1)C(=O)N1CCC(F)(F)C[C@H]1C(=O)NC(C#N)C[C@@H]1CCNC1=O (stereo partly shown) and report it.
Reply text: 10.1 to 100 µM

Inquiry: Note CC50 for the compound shown: CC(C)(C)[C@H](NC(=O)C(F)(F)F)C(=O)N1C[C@H](N2CCC(F)(F)CC2)C[C@H]1C(=O)NC(C#N)C[C@@H]1CCNC1=O (stereo partly shown)
Reply text: > 100 µM

Inquiry: Tell us which CC50 value is on record for CCCO[C@@H]1C[C@@H](C(=O)NC(C#N)C[C@@H]2CCNC2=O)N(C(=O)[C@@H](NC(=O)OC(C)(C)C)C(C)(C)C)C1 (stereo partly shown)
Reply text: 10.1 to 100 µM

Inquiry: Give the reported value of CC50 for this record: CCCN(CCC)[C@@H]1C[C@@H](C(=O)NC(C#N)C[C@@H]2CCNC2=O)N(C(=O)[C@@H](NC(=O)OCc2ccccc2)C(C)(C)C)C1 (stereo partly shown)
Reply text: 10.1 to 100 µM

Inquiry: For the compound `CC(C)(C)[C@H](NC(=O)OCc1ccncc1)C(=O)N1C[C@H]2[C@@H]([C@H]1C(=O)N[C@H](C#N)C[C@@H]1CCNC1=O)C2(C)C` , give its reported CC50.
Reply text: 1 to 10 µM

Inquiry: Provide CC50 value for the following compound: CCCO[C@@H]1C[C@@H](C(=O)NC(C#N)C[C@@H]2CCNC2=O)N(C(=O)[C@@H](NC(=O)NC(C)(C)C)C(C)(C)C)C1 (stereo partly shown)
Reply text: > 100 µM

Values were extracted from patent US20240285598A1.
